assay.system: systemic lupus erythematosus autoantigen SSA
assay.protocol: AtheNA Multi-Lyte ANA, Ab at 6.25 ug/ml;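 note: monoclonal antibodies screened for reactivity against a panel of nuclear autoantigens, with an anti-HIV and an anti-RSV monoclonal antibody serving as controls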
API: label(entry) gives T if the entry's AtheNA signal is strictly smaller than 4; on equality or larger values it gives F.

{"columns": ["binder", "discrete.label"],
 "data": [
  ["Ab7957/293i (antibody, IgG1, V domains shown, Recombinant human antibody with IgG1 heavy chain backbone and kappa light chain constant; they begin at LVESGGG and MTQSP; also called Ab7957i; mAb 7957) VH: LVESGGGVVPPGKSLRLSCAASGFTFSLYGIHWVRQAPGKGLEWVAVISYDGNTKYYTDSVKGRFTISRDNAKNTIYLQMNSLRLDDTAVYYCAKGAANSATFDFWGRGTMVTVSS VL: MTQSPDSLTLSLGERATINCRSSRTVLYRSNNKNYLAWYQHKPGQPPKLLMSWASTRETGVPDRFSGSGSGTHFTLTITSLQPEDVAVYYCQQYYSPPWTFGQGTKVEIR", "F"],
  ["Ab7955 (antibody, V domains shown, Recombinant human antibody with IgG1 heavy chain backbone and kappa light chain constant; also called mAb 7955; clone 19) VH: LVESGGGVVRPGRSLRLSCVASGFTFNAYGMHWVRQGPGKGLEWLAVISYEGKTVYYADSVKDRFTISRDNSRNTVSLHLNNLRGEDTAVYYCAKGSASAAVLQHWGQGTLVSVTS VL: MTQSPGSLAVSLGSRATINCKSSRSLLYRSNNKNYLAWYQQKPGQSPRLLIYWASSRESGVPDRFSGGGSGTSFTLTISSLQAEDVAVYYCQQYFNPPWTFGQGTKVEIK", "F"],
  ["Ab7962/293i (antibody, V domains shown, Recombinant human antibody with IgG1 heavy chain backbone and kappa light chain constant (IgM in the donor B cell); they begin at LVESGGG and MTQSL; also called clone 27; pH007962/pK005996) VH: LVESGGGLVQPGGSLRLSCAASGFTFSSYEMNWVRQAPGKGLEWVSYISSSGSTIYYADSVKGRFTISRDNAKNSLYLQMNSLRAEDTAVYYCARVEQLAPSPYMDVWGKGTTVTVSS VL: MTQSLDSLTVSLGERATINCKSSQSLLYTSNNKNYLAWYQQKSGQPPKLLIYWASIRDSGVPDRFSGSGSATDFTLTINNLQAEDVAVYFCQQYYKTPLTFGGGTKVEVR", "T"],
  ["Ab7960/293i (antibody, IgG1, V domains shown, Recombinant human antibody with IgG1 heavy chain backbone and kappa light chain constant; they begin at LVESGGG and MTQSP; also called mAb 7960; mAb7960) VH: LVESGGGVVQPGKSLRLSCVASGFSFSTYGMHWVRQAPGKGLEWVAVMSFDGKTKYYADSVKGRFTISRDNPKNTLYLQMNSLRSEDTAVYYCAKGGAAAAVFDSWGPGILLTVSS VL: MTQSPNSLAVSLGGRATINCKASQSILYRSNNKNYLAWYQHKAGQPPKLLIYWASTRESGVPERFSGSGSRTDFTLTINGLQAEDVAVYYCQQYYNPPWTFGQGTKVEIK", "T"],
  ["Ab7961/293i (antibody, IgG1, V domains shown, Recombinant human antibody with IgG1 heavy chain backbone and kappa light chain constant; they begin at LVESGGG and MTQSP; also called mAb 7961; clone 24) VH: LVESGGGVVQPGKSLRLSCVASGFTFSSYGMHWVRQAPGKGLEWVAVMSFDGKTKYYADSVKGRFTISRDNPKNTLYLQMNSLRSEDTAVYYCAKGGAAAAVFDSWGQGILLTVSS VL: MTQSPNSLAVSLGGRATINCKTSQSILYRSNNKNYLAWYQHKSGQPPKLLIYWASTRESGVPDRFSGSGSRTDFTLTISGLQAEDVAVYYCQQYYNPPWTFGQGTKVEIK", "F"]
]}
